test_protocol: NCI Yeast Anticancer Drug Screen. Data for the mec2-1 strain (AID 157)
settings: S. cerevisiae mec2-1 strain, at 100.0 µM, stronger effect = higher value
Description: Growth inhibition of yeast strains with defined genetic alterations is measured as a screen for potential anti-cancer activity. Selected strains with alterations in DNA damage repair or cell cycle control were exposed to compounds and growth inhibition was measured relative to vehicle treated controls. The strain used in this assay is mec2-1
About 79,000 compounds went through this panel and 15% of them were active in at least one assay; those are over-represented in the sample as a whole. Activity calls are given as the source filed them. Cut-off read from the data, not from the text of the source: active = growth inhibition above about 70%; inactive = the rest.

{"molecule": "CO[C@H](/C(C)=C/C=C/C(C)=C/c1coc(C)n1)[C@H](C)[C@H]1C[C@@H](O)[C@@]2(C)O[C@H]2/C=C/[C@@H](C)[C@@H]2C[C@@H](CC(=O)O2)C[C@H]2O[C@@H]2C(=O)O1", "growth inhibition": "93% (active)"}
{"molecule": "Oc1cccc2nc3ccccc3nc12", "growth inhibition": "94% (active)"}
{"molecule": "CCOP(=S)(S)OCC.[Pd]", "growth inhibition": "85% (active)"}
{"molecule": "Cc1c2ccccc2cc2ccccc12", "growth inhibition": "99% (active)"}
{"molecule": "O=[N+]([O-])O.[NH-]C1CCCCC1[NH-].[NH-]C1CCCCC1[NH-].[NH-]C1CCCCC1[NH-].[OH-].[OH-].[OH-].[Pt+4].[Pt+4].[Pt+4] (stereo unspecified)", "growth inhibition": "63% (inactive)"}
{"molecule": "O=C(O)CCCc1cc(I)c(N(CCCl)CCCl)c(I)c1", "growth inhibition": "95% (active)"}
{"molecule": "CC1CC(Br)C(=O)O1 (stereo unspecified)", "growth inhibition": "95% (active)"}
{"molecule": "C[C@@]12CCC(=O)C=C1CC[C@H]1C2=CC[C@]2(C)C1CC[C@@]2(C)O (stereo partly specified)", "growth inhibition": "96% (active)"}
{"molecule": "C[C@]12CC[C@H](O)CC1=CC[C@@H]1[C@@H]2CC[C@]2(C)C(=O)CC[C@@H]12", "growth inhibition": "90% (active)"}
{"molecule": "O=C(O)C1C2C=CC(C2)C1c1ccccc1 (stereo unspecified)", "growth inhibition": "9% (inactive)"}
{"molecule": "CCNC(=O)OCC1C2=C(C(=O)C(C)=C(N)C2=O)N2CC3C(N3C)C12OC (stereo unspecified)", "growth inhibition": "87% (active)"}

====

test_protocol: NCI Yeast Anticancer Drug Screen. Data for the CLN2oe strain (AID 163);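 note: 0% = growth of vehicle-only control cultures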
settings: S. cerevisiae CLN2oe strain, at 1.2 µM, stronger effect = higher value
About 79,000 compounds went through this panel and 15% of them were active in at least one assay; those are over-represented in the sample as a whole. Active and inactive are the calls of the source. Rule as the data show it: active = growth inhibition above about 70%; inactive = the rest.
attribute_measured: growth inhibition

{"compound": "Oc1ccc(Cl)cc1Cc1ccccc1", "attribute_measured": "growth inhibition", "result": "-11% (inactive)"}
{"compound": "O=[N+]([O-])c1oc2ccc3ccccc3c2c1CCO", "attribute_measured": "growth inhibition", "result": "29% (inactive)"}
{"compound": "CC1CCC2(NC1)OC1CC3C4CCC5CC(OC6OC(CO)C(OC7OC(CO)C(O)C(OC8OCC(O)C(O)C8O)C7OC7OC(CO)C(O)C(O)C7O)C(O)C6O)CCC5(C)C4CCC3(C)C1C2C (stereo not given)", "attribute_measured": "growth inhibition", "result": "-15% (inactive)"}
{"compound": "C[CH2][Sn]([CH2]C)([O]S(C)(=O)=O)[O]S(C)(=O)=O", "attribute_measured": "growth inhibition", "result": "-78% (inactive)"}
{"compound": "CCOP(=S)(S)OCC.[Pd]", "attribute_measured": "growth inhibition", "result": "-3% (inactive)"}
{"compound": "COc1cc([C@@H]2c3cc4c(cc3C[C@@H]3COC(=O)C32)OCO4)cc(OC)c1O (stereo not given in full)", "attribute_measured": "growth inhibition", "result": "-3% (inactive)"}
{"compound": "CCc1cccc(C(C)C)c1NC1=C([n+]2ccc(C)cc2)C(=O)c2ccccc2C1=O", "attribute_measured": "growth inhibition", "result": "-3% (inactive)"}
{"compound": "O=C1c2ccc3ccccc3c2CCC1N1CCCCC1 (stereo not given)", "attribute_measured": "growth inhibition", "result": "5% (inactive)"}
{"compound": "CCCN(CCC)c1c([N+](=O)[O-])cc(S(N)(=O)=O)cc1[N+](=O)[O-]", "attribute_measured": "growth inhibition", "result": "-11% (inactive)"}
{"compound": "CN(CCc1ccc(Br)cc1)CCN1CCCCC1", "attribute_measured": "growth inhibition", "result": "15% (inactive)"}
